STUDY_TARGET: T1, human-CD40 monomer (human, UniProt P25942 21-193, limits assumed)
T1 construct: also called hCD40-monomer; human-CD40-monomer protein
T1 sequence (P25942 21-193 limits assumed): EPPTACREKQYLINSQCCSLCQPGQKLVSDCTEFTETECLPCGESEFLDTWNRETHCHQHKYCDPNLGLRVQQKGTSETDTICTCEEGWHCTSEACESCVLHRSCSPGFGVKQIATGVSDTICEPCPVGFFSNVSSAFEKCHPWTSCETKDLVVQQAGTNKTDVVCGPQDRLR
PROTOCOL_NOTES: SPR 2 pt screen, Ab on protein A
Measured koff of individual entries
Supply the numeric figure in s⁻¹, leaving out any unit text.

Here are 2 binders together with their reported answers.
humanized Y1238 hz38 (hz-HC8 / hz-LC3), IgG1.3f (antibody, V domains shown, IgG1.3f heavy constant, common CL; expression supernatant; also called Sup 38) VH: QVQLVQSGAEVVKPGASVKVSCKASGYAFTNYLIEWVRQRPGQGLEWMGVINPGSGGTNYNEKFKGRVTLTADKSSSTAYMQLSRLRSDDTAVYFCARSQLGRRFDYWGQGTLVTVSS VL: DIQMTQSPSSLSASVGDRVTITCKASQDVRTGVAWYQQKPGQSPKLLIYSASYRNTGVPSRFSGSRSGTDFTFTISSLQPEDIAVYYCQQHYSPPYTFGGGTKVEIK
0.00032
chimeric Y1238 supernatant (Sup 56; HC-Chim / LC-Chim) (antibody, Tested as expression supernatant) VH: QVQLQQSGAELVRPGTSVKVSCKASGYAFTNYLIEWVKQRPGQGLEWIGVINPGSGGTNYNEKFKGKATLTADKSSSTAYMQLSSLTSDDSAVYFCARSQLGRRFDYWGQGTTLTVSS light: DIVMTQSHKFMSTSVGDRVSITCKASQDVRTGVAWYQQKPGQSPKLLIYSASYRNTGVPDRFTGSRSGTDFTFTISSVQAEDLAVYYCQQHYSPPYTFGGGTKLEIKRTVAAPSVFIFPPSDEQLKSGTASVVCLLNNFYPREAKVQWKVDNALQSGNSQESVTEQDSKDSTYSLSSTLTLSKADYEKHKVYACEVTHQGLSSPVTKSFNRGEC
0.00032

Kindly consider the entry below.
IN: Could you tell me which koff is on file for humanized Y1238 hz9 (hz-HC2 / hz-LC4), IgG1.3f (antibody, V domains shown, IgG1.3f heavy constant, common CL; expression supernatant; also called Sup 9) VH: QVQLVQSGAEVKKPGASVKVSCKASGYAFTNYLIEWVRQAPGQGLEWMGVINPGSGGTNYNEKFKGRVTMTADTSISTAYMELSRLRSDDTAVYYCARSQLGRRFDYWGQGTLVTVSS VL: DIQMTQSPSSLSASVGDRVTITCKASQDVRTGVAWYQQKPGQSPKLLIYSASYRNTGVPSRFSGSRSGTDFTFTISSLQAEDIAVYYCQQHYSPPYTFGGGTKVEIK ?
OUT: 0.00031
